B1: full-length phytochrome B (phyB), wild type, in vitro translated [modified: 35S-methionine labelled; 35S-methionine labelled] [Arabidopsis thaliana] / GAD-PIF3, in vitro translated [modified: 35S-methionine labelled … (parent)
chain 1: MVSGVGGSGGGRGGGRGGEEEPSSSHTPNNRRGGEQAQSSGTKSLRPRSNTESMSKAIQQYTVDARLHAVFEQSGESGKSFDYSQSLKTTTYGSSVPEQQITAYLSRIQRGGYIQPFGCMIAVDESSFRIIGYSENAREMLGIMPQSVPTLEKPEILAMGTDVRSLFTSSSSILLERAFVAREITLLNPVWIHSKNTGKPFYAILHRIDVGVVIDLEPARTEDPALSIAGAVQSQKLAVRAISQLQALPGGDIKLLCDTVVESVRDLTGYDRVMVYKFHEDEHGEVVAESKRDDLEPYIGLHYPATDIPQASRFLFKQNRVRMIVDCNATPVLVVQDDRLTQSMCLVGSTLRAPHGCHSQYMANMGSIASLAMAVIINGNEDDGSNVASGRSSMRLWGLVVCHHTSSRCIPFPLRYACEFLMQAFGLQLNMELQLALQMSEKRVLRTQTLLCDMLLRDSPAGIVTQSPSIMDLVKCDGAAFLYHGKYYPLGVAPSEVQIKDVVEWLLANHADSTGLSTDSLGDAGYPGAAALGDAVCGMAVAYITKRDFLFWFRSHTAKEIKWGGAKHHPEDKDDGQRMHPRSSFQAFLEVVKSRSQPWETAEMDAIHSLQLILRDSFKESEAAMNSKVVDGVVQPCRDMAGEQGIDELGAVAREMVRLIETATVPIFAVDAGGCINGWNAKIAELTGLSVEEAMGKSLVSDLIYKENEATVNKLLSRALRGDEEKNVEVKLKTFSPELQGKAVFVVVNACSSKDYLNNIVGVCFVGQDVTSQKIVMDKFINIQGDYKAIVHSPNPLIPPIFAADENTCCLEWNMAMEKLTGWSRSEVIGKMIVGEVFGSCCMLKGPDALTKFMIVLHNAIGGQDTDKFPFPFFDRNGKFVQALLTANKRVSLEGKVIGAFCFLQIPSPELQQALAVQRRQDTECFTKAKELAYICQVIKNPLSGMRFANSLLEATDLNEDQKQLLETSVSCEKQISRIVGDMDLESIEDGSFVLKREEFFLGSVINAIVSQAMFLLRDRGLQLIRDIPEEIKSIEVFGDQIRIQQLLAEFLLSIIRYAPSQEWVEIHLSQLSKQMADGFAAIRTEFRMACPGEGLPPELVRDMFHSSRWTSPEGLGLSVCRKILKLMNGEVQYIRESERSYFLIILELPVPRKRPLSTASGSGDMMLMMPY
chain 2: MPLFELFRLTKAKLESAQDRNPSPPVDEVVELVWENGQISTQSQSSRSRNIPPPQANSSRAREIGNGSKTTMVDEIPMSVPSLMTGLSQDDDFVPWLNHHPSLDGYCSDFLRDVSSPVTVNEQESDMAVNQTAFPLFQRRKDGNESAPAASSSQYNGFQSHSLYGSDRARDLPSQQTNPDRFTQTQEPLITSNKPSLVNFSHFLRPATFAKTTNNNLHDTKEKSPQSPPNVFQTRVLGAKDSEDKVLNESVASATPKDNQKACLISEDSCRKDQESEKAVVCSSVGSGNSLDGPSESPSLSLKRKHSNIQDIDCHSEDVEEESGDGRKEAGPSRTGLGSKRSRSAEVHNLSERRRRDRINEKMRALQELIPNCNKVDKASMLDEAIEYLKSLQLQVQIMSMASGYYLPPAVMFPPGMGHYPAAAAAMAMGMGMPYAMGLPDLSRGGSSVNHGPQFQVSGMQQQPVAMGIPRVSGGGIFAGSSTIGNGSTRDLSGSKDQTTTNNNSNLKPIKRKQGSSDQFCGSS

Variants of: B1
assay_protocol: in vitro co-immunoprecipitation
applied_conditions: with GAD-PIF3, in vitro translated [modified: 35S-methionine labelled, phyB in Pr form, GAD-PIF3 as bait, phyB as prey, 35S-met in vitro translated proteins, parent: 1, read off a plot
endpoint_label: screen value (relative to wild-type phyB Pr = 1)

Some variants with known screen value (relative to wild-type phyB Pr = 1) results, for comparison:
chain 1 R415W; 0.45
chain 1 C345R; 2

1: chain 1 V273L
2: chain 1 L256C
Q: Which gives the smaller screen value (relative to wild-type phyB Pr = 1) number: 1 or 2 ? When you have decided, please share the label of that item.
Ans: 2
(2: 1, 1: 2)

A: chain 1 S134G
B: chain 1 S367P
Q: Form field 'greater screen value (relative to wild-type phyB Pr = 1)' accepts A or B ; which applies? When you have decided, please share the label of that item.
Ans: B
(B: 2.4, A: 1.6)
